biological target: p38 MAP kinase (Homo sapiens); assay: p38 MAP Kinase Assay (33P incorporation into myelin basic protein, filter plate); format: biochemical; details: Table 1; MKK6-activated p38, MBP substrate, 50 minutes
Sequence (Q16539 whole entry): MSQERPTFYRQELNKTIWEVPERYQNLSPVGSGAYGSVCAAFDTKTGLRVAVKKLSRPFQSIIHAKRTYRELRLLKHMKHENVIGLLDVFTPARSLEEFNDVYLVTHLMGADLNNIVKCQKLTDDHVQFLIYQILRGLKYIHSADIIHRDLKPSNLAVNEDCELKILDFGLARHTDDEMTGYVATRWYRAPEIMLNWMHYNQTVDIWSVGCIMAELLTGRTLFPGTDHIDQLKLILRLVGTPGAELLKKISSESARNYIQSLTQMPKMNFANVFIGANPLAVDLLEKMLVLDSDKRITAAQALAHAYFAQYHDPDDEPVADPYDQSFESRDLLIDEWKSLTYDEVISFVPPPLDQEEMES
pIC50: −log10 of the molar value.
Value Kind: pIC50

Below: 5 molecules and their reported pIC50.
CC(C)(C)c1ccccc1NC(=O)Nc1ccc(F)c(COc2cccnc2)c1 :: > 4.70
Cc1cc(C)cc(COc2cccnc2N)c1 :: > 3.70
Nc1ncccc1OCc1ccccc1-c1ccccc1 :: > 5.00
O=S(=O)(c1ccccc1)N(c1ccc(Cl)c(COc2cccnc2)c1)S(=O)(=O)c1ccccc1 :: > 3.00
Nc1ncccc1OCc1cc2c(cc1Cl)OCO2 :: > 3.00

The molecule listed as `O=C(Nc1ccc(F)c(COc2cccnc2)c1)c1ccccc1` has a reported pIC50 of > 3.70

The molecule listed as `c1cncc(OCc2cccc3ccccc23)c1` has a reported pIC50 of > 3.00

The molecule listed as `O=C(Nc1ccc(F)c(COc2cccnc2)c1)c1cncc(N2CCOCC2)n1` has a reported pIC50 of > 4.70

The molecule listed as `Nc1ncccc1OCc1cccc2ccoc12` has a reported pIC50 of > 3.00

The molecule listed as `NC(=O)Nc1ccc(Cl)c(COc2cccnc2)c1` has a reported pIC50 of > 4.70
